- run description: NCI Yeast Anticancer Drug Screen. Data for the rad50 strain (AID 155);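 also: 0% = growth of vehicle-only cultures of the same strain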
- condition summary: S. cerevisiae rad50 strain growth inhibition; at 50.0 µM (retest, dose inferred, filed as 5.0); active compounds read high
Compounds without any hit were thinned out: in the full panel of roughly 79,000, 15% have a hit.

compound: CC(C)(C)[Si](C)(C)O/N=C\c1cccc(O[Si](C)(C)C(C)(C)C)c1
growth inhibition, %: 97
--
compound: CN1C(/C=C/c2ccc(O)c3ncccc23)CCC2CCCC(O)C21 (stereo not drawn)
growth inhibition, %: 94
--
compound: CCN(CC)CCC(=O)NC1c2ccc(Cl)cc2Oc2c(C)cccc21 (stereo not drawn)
growth inhibition, %: 21
--
compound: COc1ccc2ccc(/C=C/[N+](=O)[O-])cc2c1OC
growth inhibition, %: 98
--
compound: Cn1cnc([N+](=O)[O-])c1S
growth inhibition, %: 1
--
compound: CCOC(=O)c1ccc(-n2c(C)nc3ccc(Br)cc3c2=O)cc1
growth inhibition, %: -6
--
compound: C=[CH][Sn]([CH]=C)([S]c1cccc2cccnc12)[S]c1cccc2cccnc12
growth inhibition, %: 99
--
compound: O=S(=O)(c1ccc2c(c1)CCCN2)N1CCC[C@H]2CCCC[C@@H]21
growth inhibition, %: 94
--
compound: Cc1ccc(N2CC3CC4(C)C=CC3(C2)O4)cc1 (stereo not drawn)
growth inhibition, %: 8
--
compound: O=[N+]([O-])c1ccccc1NCCO
growth inhibition, %: -2
--
compound: c1ccc2c(c1)Nc1ccc3ccccc3c1S2
growth inhibition, %: -1
--
compound: Cc1ccccc1-n1c(N)c(-c2nc3ccccc3[nH]2)sc1=S
growth inhibition, %: 45
--
compound: OCc1c2c(cc3c1CC1(C3)Cc3cc4c(c(CO)c3C1)CCC4)CCC2
growth inhibition, %: 94
--
compound: CCCCCCCCCCCCSC(=NCC)NCC
growth inhibition, %: 99
--
compound: C=CCCCCn1c2ccccc2c2c(C)c3c[n+](C)ccc3c(C)c21
growth inhibition, %: 99
--
compound: COc1ccc(C(CN2CCOCC2)C(C)=O)cc1OC (stereo not drawn)
growth inhibition, %: 81
--
compound: C=C(Br)CN(CC)CC
growth inhibition, %: -185
--
compound: COC1=C2C[C@@H](C)C[C@@H](OC)[C@@H](O)[C@H](C)/C=C(\C)[C@@H](OC(N)=O)[C@H](OC)/C=C\C=C(/C)C(=O)NC(=CC1=O)C2=O
growth inhibition, %: 88
--
compound: N=C(N)Cc1ccc(NC(=O)c2ccc(C(=O)Nc3ccc(CC(=N)N)cc3)cc2)cc1
growth inhibition, %: -8
--
compound: CC[N+]1(C)CC2CCC(CC2)C1 (stereo not drawn)
growth inhibition, %: -5
--
compound: O=C1C=CCCCC1(c1ccccc1)c1ccccc1
growth inhibition, %: 8
--
compound: N#Cc1sc2c(c1OC(=O)c1ccc(Cl)cc1)c(=O)n(-c1ccccc1)c(=S)n2-c1ccccc1
growth inhibition, %: -16
--
compound: COc1ccc(C(=O)OC(=O)c2ccc(OC)cc2)cc1
growth inhibition, %: 9
--
compound: CC1=C(C(=O)Nc2ccc(Cl)c(Cl)c2)C(c2ccco2)C(C(=O)Nc2ccc(Cl)c(Cl)c2)=C(C)N1
growth inhibition, %: 41
--
compound: CC(C)C1=CC[C@H]2C(=C1)CC[C@@H]1[C@]2(C)CCC[C@@]1(C)C(=O)O
growth inhibition, %: 90
--
compound: CC(C)OC(=O)c1ccc(CCC2=CC(=O)C=CC2=O)cc1
growth inhibition, %: 89
--
compound: Oc1ccc(C(O)(c2ccccc2)c2ccccc2)c2ccccc12
growth inhibition, %: 94
--
compound: S=C(C(=S)N1CCOCC1)N1CCOCC1
growth inhibition, %: 16
--
compound: CCOC(=O)C(NC(=O)c1ccccc1)[CH](c1ccc(OC)cc1)[Sn]([c]1ccccc1)([c]1ccccc1)[c]1ccccc1 (stereo not drawn)
growth inhibition, %: 89
--
compound: O=C(/C(=C/c1ccc2c(c1)OCO2)c1ccccc1)c1ccc(OCCN2CCCC2)cc1
growth inhibition, %: -4
--
compound: CCOC(=O)c1c(C)[nH]c(C(=O)C(N)C(=O)OCC)c1C (stereo not drawn)
growth inhibition, %: -3
--
compound: N#CC(/C=C/c1ccccc1)(NO)Nc1cccc(Cl)c1 (stereo not drawn)
growth inhibition, %: 98
--
compound: O=C(CC1(O)C(=O)Nc2c(Cl)cccc21)c1ccc(Cl)cc1 (stereo not drawn)
growth inhibition, %: 45

---

- run description: NCI Yeast Anticancer Drug Screen. Data for the cln2 rad14 strain (AID 165);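 also: 0% = growth equal to vehicle treated cultures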
- condition summary: S. cerevisiae cln2 rad14 strain, at 50.0 µM (retest, dose inferred, filed as 5.0)
Compounds without any hit were thinned out: in the full panel of roughly 79,000, 15% have a hit. Activity calls are given as the source filed them. Rule as the data show it: active = growth inhibition above about 70%; inactive = the rest.
Classes used: active, inactive

compound: O=c1oc(-c2ccccc2)nc2ccccc12
label value: inactive
--
compound: CC(C)(C)CCCC(C(=O)O)c1ccccc1 (configuration not stated)
label value: inactive
--
compound: O=C(N/C(=C\c1nc2ccccc2s1)c1ccccc1O)c1ccccc1
label value: inactive
--
compound: COc1ccc2ccccc2c1Cc1c(OC)ccc2ccccc12
label value: active
--
compound: O=C1c2cccc(O)c2C(=O)c2c(OC3OC(CO)C(O)C(O)C3O)cccc21 (configuration not stated)
label value: inactive
--
compound: C=CCCCCCCCCC(=O)OCC=C
label value: inactive
--
compound: Nc1ccccc1Nc1c([N+](=O)[O-])cc(C(F)(F)F)cc1[N+](=O)[O-]
label value: inactive
--
compound: CC(C)=CCc1c2c(c(O)c3c(=O)c(-c4ccc(O)cc4O)coc13)C=CC(C)(C)O2
label value: active
--
compound: CCN1C(/C=C/c2ccc(O)c3ncccc23)CCC2CC(C)CCC21 (configuration not stated)
label value: active
--
compound: CCCOC(=O)CSC#N
label value: active
--
compound: CC1CCCCN(CCN(Cc2ccccc2)c2ccccc2)C1 (configuration not stated)
label value: inactive
--
compound: CCN(CC)CCOc1cccc2c1C(=O)c1c(O)cccc1C2=O
label value: inactive

---

- run description: NCI Yeast Anticancer Drug Screen. Data for the rad50 strain (AID 155);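 also: 0% = growth of vehicle-only cultures of the same strain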
- condition summary: S. cerevisiae rad50 strain growth inhibition; at 50.0 µM; active compounds read high
The panel holds about 79,000 compounds, 15% with a hit somewhere; the sample as a whole holds those more often.
// reported growth inhibition per item
endpoint label: growth inhibition (%)

compound: Cc1cc2c(cc1C)[n+]([O-])c(-c1c(Cl)cccc1Cl)c(N)[n+]2[O-]
experimental value: 82.5

compound: COc1ccc(C(=O)C2Cc3c(ccc4ccccc34)OC2=O)cc1 (stereo unspecified)
experimental value: 2.05

compound: COc1cc(CNc2nc3ccccc3nc2-c2cccs2)cc(OC)c1OC
experimental value: 10

compound: Clc1ccc(SSc2ccc(Cl)cn2)nc1
experimental value: 78.2

compound: C=C1C(C2(C)C(OC(C)=O)CC(=O)OC(C)(COC(C)=O)C2CC(=O)OC)C(OC=O)C(OC(=O)C(O)C(C)CC)C2(C)C(c3ccoc3)CC(=O)C12O (stereo unspecified)
experimental value: 76.9

compound: O=C(C[n+]1ccccc1Cl)c1ccc(Oc2ccc(C(=O)C[n+]3ccccc3Cl)cc2)cc1
experimental value: 90.6

compound: O=[N+]([O-])/C(=C\c1cccs1)c1ccccc1
experimental value: 99.2

compound: CCC1(CC(=O)O)OCCc2c1[nH]c1c(C)c(Cl)ccc21 (stereo unspecified)
experimental value: 95.7

compound: O=C(CCCl)Nc1ccc(CCC(=O)c2ccccc2NC(=O)CCCl)cc1
experimental value: 69.2

compound: Cc1cc(Cc2ccccc2Cl)ccc1O
experimental value: 99.2

compound: O=C(Cc1c[nH]c2ccccc12)N/N=C/c1ccc(Cl)cc1[N+](=O)[O-]
experimental value: 39.8

compound: Nc1ccc(/C=C2/c3ccccc3-c3nc4ccccc4cc32)cc1
experimental value: 78.9

compound: O=C1C2=C(CCCC2)C(=O)c2ccccc21
experimental value: 25.4

compound: CCC[CH2][Sn]([CH2]CCC)([O]C(=O)c1cc(F)cc(F)c1)[O][Sn]([CH2]CCC)([CH2]CCC)[O]C(=O)c1cc(F)cc(F)c1
experimental value: 83

compound: CCCCCCCCCCCC[n+]1cc2ccccc2cc1C
experimental value: 91.7

compound: CCOC(=O)c1ccc(C(C)C)cc1
experimental value: 40.5

compound: Cc1nn(C(=O)c2ccccc2O)c2c1C(c1ccc(O)cc1O)SC(N)=N2 (stereo unspecified)
experimental value: 46

compound: CCOP(=O)(OCC)/C(C#N)=C/c1ccc(C(F)(F)F)cc1
experimental value: 89.5

compound: Cc1ccc(S(=O)(=O)OCC2OC(c3ccccc3)OC3C(CO)OC(c4ccccc4)OC23)cc1 (stereo unspecified)
experimental value: 16.7

compound: CN1CC[C@@H](c2ccccc2)[C@@H](O)C1
experimental value: 6.3

compound: Cc1cccc(/C=N/Nc2cc(C)nc3ccccc23)n1
experimental value: 92.7

compound: CC1=C(C(=O)Nc2ccc([N+](=O)[O-])cc2)C(c2ccccc2F)C(C(=O)Nc2ccc([N+](=O)[O-])cc2)=C(C)N1
experimental value: 56.4

compound: CCN(CC)Cc1ccc(Nc2cc(C)nc(/N=C(\N)Nc3ccc(Cl)c(Cl)c3)n2)cc1
experimental value: 97.3

compound: C/C=C/c1cc2c(cc1O)CC[C@@H]1[C@@H]2CC[C@]2(C)[C@@H](O)CC[C@@H]12
experimental value: 89

compound: CCCCCCc1c(Cl)nc(Cl)nc1Cl
experimental value: 65.8

compound: O=C1CCCCO1
experimental value: -15.8
